- Protocol details: chemical genetic growth profiling, strain panel (AID 1159580);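 also: tested at 20 µM; growth read once vehicle control cultures reached saturation at 30 °C; lower values mean less growth of the strain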
- Measurement context: S. cerevisiae deletion strains, growth OD, locus YIL147C, strain SLN1
Screen size: about 5,500 compounds; about 2,000 (36%) were called active. Inconclusive results (about 18%) are left out. Rule as the data show it: active = normalized growth mostly below about 0.91 (no sharp cut-off); inconclusive = no clear call, values can overlap the other calls; inactive = mostly above about 0.92. Some of the results follow.
Classes used: active, inactive

Compound: Cc1nn(Cc2cccc(C(=O)O/N=C(/N)c3ccc(Cl)cc3)c2)c(C)c1Br
Assigned class: inactive
--
Compound: COc1cccc(C(=O)C(C#N)=C(SC)SC)c1
Assigned class: active
--
Compound: CN(NC(=S)Nc1cc(Cl)ccc1Cl)c1ccc(C(F)(F)F)cc1[N+](=O)[O-]
Assigned class: inactive
--
Compound: Cc1nc(C(F)(F)F)ccc1-c1nnc(SC(=O)c2ccc(Cl)cc2)o1
Assigned class: active
--
Compound: N/C(=N/OC(=O)c1ccccc1Cl)c1cccc(CS(=O)(=O)c2ccc(Cl)cc2)c1
Assigned class: inactive
--
Compound: N#C/C(=N/Nc1ccc(Cl)cc1)C(=O)C1CC1
Assigned class: active
--
Compound: O=S(=O)(Nc1cc(-c2cccs2)nn1-c1ccc(I)cc1)c1cccc(F)c1
Assigned class: inactive
--
Compound: O=C(Oc1ccc(C2SCCS2)cc1)c1cccs1
Assigned class: inactive
--
Compound: O=C(SCc1c(Cl)cccc1Cl)c1ccc([N+](=O)[O-])o1
Assigned class: inactive
--
Compound: O=C(OCc1ccc(Oc2ccc(Cl)cc2Cl)c([N+](=O)[O-])c1)c1ccc([N+](=O)[O-])o1
Assigned class: inactive
--
Compound: COc1cc(OC)cc(/C(N)=N\O)c1
Assigned class: inactive
--
Compound: O=C1OC(Nc2ccccc2SCc2ccccc2Cl)c2ccccc21 (stereo not given)
Assigned class: inactive
--
Compound: Nc1ccc(N2CCN(c3ccc(C(F)(F)F)cn3)CC2)nc1
Assigned class: inactive
--
Compound: Fc1ccc(Nc2nc(-c3ccc(F)c(F)c3)cs2)c(F)c1
Assigned class: active
--
Compound: O=C(NCc1ccc(F)c(Cl)c1)Nc1csc([N+](=O)[O-])c1
Assigned class: inactive
--
Compound: CC(C)(C)c1cc(C(=O)/C(C#N)=N\Nc2ccc(Cl)cc2)no1
Assigned class: inactive
--
Compound: FC(F)(F)c1ccc(NC(=S)Nc2ccc(C(F)(F)F)cc2Cl)c(Cl)c1
Assigned class: inactive
--
Compound: Cc1ccc(C(=O)Nc2ccc3ccccc3n2)cc1
Assigned class: inactive
--
Compound: CC(Oc1ccc(Cl)cc1Cl)C(=O)NNC(=S)Nc1ccccc1 (stereo not given)
Assigned class: inactive
--
Compound: Cc1nc([N+](=O)[O-])cn1CC(=O)c1ccc(Cl)cc1
Assigned class: inactive
--
Compound: O=C(Nc1ccc(Cl)cc1)c1csc([N+](=O)[O-])c1
Assigned class: inactive
--
Compound: FC(F)(F)c1ccc(C2Sc3ccccc3N=C3c4ccccc4CC32)cc1 (stereo not given)
Assigned class: inactive
--
Compound: COC(=O)c1ccc(Oc2c(C(F)(F)F)oc3cc(O)ccc3c2=O)cc1
Assigned class: inactive
--
Compound: CC(=O)Oc1ccc2c(=O)c(Oc3ccc(Cl)cc3)c(C)oc2c1
Assigned class: inactive
--
Compound: O=C1CSC(=Nc2cc(Cl)cc(Cl)c2)N1Cc1cccnc1
Assigned class: inactive
--
Compound: CCCCCc1ccc(-c2nc(SCC(C)=O)n[nH]2)cc1
Assigned class: inactive
--
Compound: COc1ccc(/C(C#N)=C2C=C/C(=N/O)C(Cl)=C\2)cc1
Assigned class: inactive
--
Compound: CCOC(=O)C(O)(c1ccc(NC(=O)Nc2ccc(Cl)cc2)cc1)C(F)(F)F (stereo not given)
Assigned class: inactive
--
Compound: Cc1oc(-c2ccc(Cl)cc2)cc1C(=O)N1CCN(c2ccc(C(F)(F)F)cn2)CC1
Assigned class: inactive
--
Compound: CC(/C=C/c1ccccc1)=N/OC(=O)c1ccccc1Cl
Assigned class: inactive
--
Compound: Cc1c(NCN2C(=O)CCC2=O)cc2c(c1[N+](=O)[O-])C(C)(C)CC2(C)C
Assigned class: inactive
--
Compound: N#C/C(=C\c1ccc(C(F)(F)F)cc1)c1ccc(O)cc1
Assigned class: inactive
--
Compound: N/C(=N/OC(=O)c1ccccc1Cl)c1ccc2nonc2c1
Assigned class: inactive
--
Compound: Nc1ccccc1C(=O)N/N=C\c1cc(Cl)cc(Cl)c1O
Assigned class: inactive
--
Compound: Cc1c(C(=O)NCCNc2ccc(C(F)(F)F)cc2[N+](=O)[O-])cnn1-c1ccc(F)cc1
Assigned class: inactive
--
Compound: CN(C)c1nc(=S)ss1
Assigned class: active
--
Compound: CCOC(=O)C(NC(C)=O)(Nc1ccc(F)c(Cl)c1)C(F)(F)F (stereo not given)
Assigned class: inactive
--
Compound: CCCCc1ccc(N=CNO)c(C)c1
Assigned class: inactive
--
Compound: N#Cc1c(N)sc2c1CCc1ccccc1-2
Assigned class: inactive
--
Compound: Oc1ccc(-n2nnnc2SCc2ccc(OC(F)(F)F)cc2)cc1
Assigned class: inactive
